- method-description: Example 4: dose response of FKBP constructs 160-255, Ec50, Ec90 and fold change (raw and normalized to mCherry)
- Type: cell-based
- conditions-used: fold change during initial analysis
observation-type: FC (fold change)

FKBP-217 (protein, Description of sequence: Construct Name: FKBP-217; Mutation(s): Q72R Q84E A117W V85R DRD M54A E61Y K101W K135Y) HCPIKSRKGDVLHAHYTGKLYDGTEFDSSLPRNQPFVFSLGTGERIKGWDQGLLGMCEGEWRKLVIPSELGYGERGWPPKIPGGATLVFEVELLYIER = 36.8
FKBP-221 (protein, Description of sequence: Construct Name: FKBP-221; Mutation(s): Q72R Q84E A117W V85R DRD M54A T25G) HCPIKSRKGDVLHAHYTGKLEDGGEFDSSLPRNQPFVFSLGTGERIKGWDQGLLGMCEGEKRKLVIPSELGYGERGWPPKIPGGATLVFEVELLKIER = 41.8
FKBP-254 (protein, Description of sequence: Construct Name: FKBP-254; Mutation(s): Q72R Q84E A117W DRD G99R) HCPIKSRKGDVLHMHYTGKLEDGTEFDSSLPRNQPFVFSLGTGEVIKGWDQGLLGMCEREKRKLVIPSELGYGERGWPPKIPGGATLVFEVELLKIER = 35.6

QUERY: So what's the measured FC (fold change) for this one? FKBP-167: FKBP13 DRD-AcGFP construct of Table 10 (protein, Description of sequence: Construct Name: FKBP-167; Mutation(s): Q72R S79W Q84R A117W DRD M54A V85R) HCPIKSRKGDVLHAHYTGKLEDGTEFDSSLPRNQPFVFWLGTGRRIKGWDQGLLGMCEGEKRKLVIPSELGYGERGWPPKIPGGATLVFEVELLKIER
RESULT: 46.8

QUERY: So what's the measured FC (fold change) for this one? FKBP-169 (protein, Description of sequence: Construct Name: FKBP-169; Mutation(s): Q72R T82W Q84E A117W DRD M54A) HCPIKSRKGDVLHAHYTGKLEDGTEFDSSLPRNQPFVFSLGWGEVIKGWDQGLLGMCEGEKRKLVIPSELGYGERGWPPKIPGGATLVFEVELLKIER
RESULT: 50.1

QUERY: So what's the measured FC (fold change) for this one? FKBP-222 (protein, Description of sequence: Construct Name: FKBP-222; Mutation(s): Q72R Q84E A117W DRD P4W T25R) HCWIKSRKGDVLHMHYTGKLEDGREFDSSLPRNQPFVFSLGTGEVIKGWDQGLLGMCEGEKRKLVIPSELGYGERGWPPKIPGGATLVFEVELLKIER
RESULT: 40.6

The reported numbers originate from patent US20250186614A1.
